Hello, the source for this data is BigSolDB 2.1, in case you need it.

- condition-set: in acetone, 278.2 K
reported-endpoint: solubility (mole fraction)
Numbers only.

The compound identified as C=C(C)[C@@H]1CC[C@]2(C(=O)O)CC[C@]3(C)[C@H](CC[C@@H]4[C@@]5(C)CC[C@H](O)C(C)(C)[C@@H]5CC[C@]43C)[C@@H]12 registered its solubility (mole fraction) at 0.000398

###

- condition-set: in n-butyl acetate, 278.2 K
reported-endpoint: solubility (mole fraction)

The compound identified as C=C(C)[C@@H]1CC[C@]2(C(=O)O)CC[C@]3(C)[C@H](CC[C@@H]4[C@@]5(C)CC[C@H](O)C(C)(C)[C@@H]5CC[C@]43C)[C@@H]12 registered its solubility (mole fraction) at 0.000824

###

- condition-set: in methanol, 288.2 K
reported-endpoint: solubility (mole fraction)
One number for each entry.

The molecule identified as C=C(C)[C@@H]1CC[C@]2(C(=O)O)CC[C@]3(C)[C@H](CC[C@@H]4[C@@]5(C)CC[C@H](O)C(C)(C)[C@@H]5CC[C@]43C)[C@@H]12 registered its solubility (mole fraction) at 0.000248

###

- condition-set: in ethanol, 278.2 K
reported-endpoint: solubility (mole fraction)
Numbers only.

The molecule identified as C=C(C)[C@@H]1CC[C@]2(C(=O)O)CC[C@]3(C)[C@H](CC[C@@H]4[C@@]5(C)CC[C@H](O)C(C)(C)[C@@H]5CC[C@]43C)[C@@H]12 registered its solubility (mole fraction) at 0.000651

###

- condition-set: in n-butanol, 318.2 K
reported-endpoint: solubility (mole fraction)

The compound identified as C=C(C)[C@@H]1CC[C@]2(C(=O)O)CC[C@]3(C)[C@H](CC[C@@H]4[C@@]5(C)CC[C@H](O)C(C)(C)[C@@H]5CC[C@]43C)[C@@H]12 registered its solubility (mole fraction) at 0.003

###

- condition-set: in n-butyl acetate, 298.2 K
reported-endpoint: solubility (mole fraction)
Numbers only.

The compound identified as C=C(C)[C@@H]1CC[C@]2(C(=O)O)CC[C@]3(C)[C@H](CC[C@@H]4[C@@]5(C)CC[C@H](O)C(C)(C)[C@@H]5CC[C@]43C)[C@@H]12 registered its solubility (mole fraction) at 0.0012
